- METHOD NOTES: qHTS of pediatric cancer cell lines to identify multiple opportunities for drug repurposing: Primary screen for SJ-GBM2 cells (AID 1347091)
- ASSAY CONDITIONS: SJ-GBM2 viability, CellTiter-Glo luminescence, 48 h; series mostly up to 46 µM
Records with an inconclusive call do not appear. Active and inactive are the calls of the source. Calls come from the whole dose curve; as a rule, active = well fitted cell-killing curve with a large enough effect; inconclusive = small, poorly fitted or top-dose-only effect; inactive = no such curve, though single readings can be large or run the other way.
EXPERIMENTAL ENDPOINT: outcome

Completed entries (count: 5):
[[record]]
compound = "C=CCN1CC[C@]23CCCC[C@H]2[C@H]1Cc1ccc(O)cc13"
reported_result = "inactive"

[[record]]
compound = "CCCCC1C(=O)NC(=O)N(C2CCCCC2)C1=O (configuration not stated)"
reported_result = "inactive"

[[record]]
compound = "C[C@@H]1CC[C@H]2[C@@H](C)C(=O)O[C@@H]3O[C@@]4(C)CC[C@@H]1[C@]32OO4"
reported_result = "inactive"

[[record]]
compound = "ClC1=C(Cl)C2(Cl)C(CBr)CC1(Cl)C2(Cl)Cl (configuration not stated)"
reported_result = "inactive"

[[record]]
compound = "O=C(N[C@@H]1N=C(c2ccccc2F)c2cccc3c2N(CC3)C1=O)c1cc2ccccc2[nH]1"
reported_result = "inactive"


Query string: Need outcome, item COc1cc(CC(C)N)cc2c1OCO2 (configuration not stated)
Result string: inactive

Query string: Another compound to look at: CCOC(=O)c1cncn1C(C)c1ccccc1 (configuration not stated)
Result string: inactive

Query string: Check CC(Cc1ccc2c(c1)OCO2)NO (configuration not stated) too.
Result string: inactive

Query string: CCC1(c2cccc(O)c2)CCCCN(C)C1 (configuration not stated) , same question.
Result string: inactive

Query string: Subsequent entry: Cc1ncc2n1-c1ccc(Cl)cc1C(c1ccccc1F)=NC2
Result string: inactive

Query string: Now give it for CCCC[N+]1(C)[C@@H]2CC(OC(=O)[C@H](CO)c3ccccc3)C[C@H]1[C@@H]1O[C@@H]12 (some centres not stated) too.
Result string: inactive

Query string: Further, for CCNc1nc(Cl)nc(NCC)n1 ?
Result string: inactive

###

- TEST TARGET: Protein phosphatase 1D (Homo sapiens) (UniProt O15297)
- Sequence (O15297 whole entry, looked up): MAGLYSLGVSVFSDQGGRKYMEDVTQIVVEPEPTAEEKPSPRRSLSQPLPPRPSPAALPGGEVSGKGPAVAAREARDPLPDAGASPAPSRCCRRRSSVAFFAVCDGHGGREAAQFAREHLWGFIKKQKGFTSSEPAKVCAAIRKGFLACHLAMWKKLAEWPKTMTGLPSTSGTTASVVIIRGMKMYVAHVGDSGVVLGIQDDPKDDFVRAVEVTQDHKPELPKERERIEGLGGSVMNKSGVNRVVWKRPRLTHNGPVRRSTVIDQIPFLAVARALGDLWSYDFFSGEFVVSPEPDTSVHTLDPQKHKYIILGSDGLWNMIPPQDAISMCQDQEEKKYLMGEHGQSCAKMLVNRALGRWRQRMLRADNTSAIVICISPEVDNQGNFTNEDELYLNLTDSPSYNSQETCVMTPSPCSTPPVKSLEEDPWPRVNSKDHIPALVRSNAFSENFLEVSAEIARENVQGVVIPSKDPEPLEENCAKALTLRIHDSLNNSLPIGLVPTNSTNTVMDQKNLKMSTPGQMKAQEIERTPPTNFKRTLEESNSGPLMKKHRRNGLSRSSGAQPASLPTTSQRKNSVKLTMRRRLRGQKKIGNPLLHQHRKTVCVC
- METHOD NOTES: Rhodamine-PBP qHTS Assay for Modulators of WT P53-Induced Phosphatase 1 (WIP1) (AID 1347425)
- ASSAY CONDITIONS: recombinant WIP1, Rhodamine-PBP phosphate fluorescence, real-time; series mostly up to 57.5 µM
Results filed as inconclusive are left out. Active and inactive are the calls of the source. Calls come from the whole dose curve; as a rule, active = well fitted curve in the direction sought with a large enough effect; inconclusive = small, poorly fitted or top-dose-only effect, or another doubt; inactive = no such curve, though single readings can be large or run the other way.
EXPERIMENTAL ENDPOINT: outcome

[[record]]
compound = "O=C1CN2CCOC2(c2ccccc2Cl)c2cc(Cl)ccc2N1 (stereo not drawn)"
experimental_endpoint = "outcome"
reported_result = "inactive"

[[record]]
compound = "CCCCCCCCC(=O)NCc1ccc(O)c(OC)c1"
experimental_endpoint = "outcome"
reported_result = "inactive"

[[record]]
compound = "CC(Cc1ccccc1)NCCCCl (stereo not drawn)"
experimental_endpoint = "outcome"
reported_result = "inactive"

[[record]]
compound = "C[C@@H]1C[C@@H]([C@H](O)CC2CC(=O)NC(=O)C2)C(=O)[C@@H](C)C1"
experimental_endpoint = "outcome"
reported_result = "inactive"

[[record]]
compound = "Sc1ccccc1Cl"
experimental_endpoint = "outcome"
reported_result = "inactive"


Query string: Look up outcome with Protein phosphatase 1D (Homo sapiens) (UniProt O15297) for this compound: CCOC(=O)C1(c2ccccc2)CCN(CCc2ccc(N)cc2)CC1
Result string: inactive

Query string: Next record, please: CCC1(c2ccccc2)CCC(=O)NC1=O (stereo not drawn)
Result string: inactive

Query string: Now give it for CC(C)NCC(O)c1ccc(N)c(C#N)c1 (stereo not drawn) too.
Result string: inactive

Query string: Same question for O=C(NC(=O)c1c(F)cccc1F)Nc1cc(Cl)c(OC(F)(F)C(F)C(F)(F)F)cc1Cl (stereo not drawn) please.
Result string: inactive

Query string: Thanks! And O=C(O)Cc1ccccc1 ?
Result string: inactive

Query string: Further, for CC1N=C(N)OC1c1ccccc1 (stereo not drawn) ?
Result string: inactive

Query string: Then what about the compound CC(CC(C#N)(c1ccccc1)c1ccccc1)N(C)C (stereo not drawn) ?
Result string: inactive

Query string: Do the same for CCOC(C(=O)OCCN(C)C)(c1ccccc1)c1ccccc1 please
Result string: inactive

###

Reported values of Potency for individual entries
- TEST TARGET: Glucocorticoid receptor (Homo sapiens)
- METHOD NOTES: GR-EFC Redistribution (AID 451); note: potency is the fitted concentration of half-maximal effect
- ASSAY CONDITIONS: CHO-K1 GR-EFC translocation, beta-gal luminescence, 2 h
Active and inactive are the calls of the source. The call rests on the fitted dose curve.

Recorded Potency, per entry:
[[record]]
compound = "CN1[C@@H]2CC[C@H]1CC(OC(=O)c1cc(Cl)cc(Cl)c1)C2 (stereo partly specified)"
test_target = "Glucocorticoid receptor (Homo sapiens)"
experimental_endpoint = "Potency"
reported_result = "> 46 µM (inactive)"

[[record]]
compound = "CCC(=O)O[C@H]1CC[C@H]2[C@@H]3CCC4=CC(=O)CC[C@]4(C)[C@H]3CC[C@]12C"
test_target = "Glucocorticoid receptor (Homo sapiens)"
experimental_endpoint = "Potency"
reported_result = "> 20.6 µM (inactive)"

[[record]]
compound = "CCCCCCCCC(=O)NCc1ccc(O)c(OC)c1"
test_target = "Glucocorticoid receptor (Homo sapiens)"
experimental_endpoint = "Potency"
reported_result = "> 46 µM (inactive)"

[[record]]
compound = "O=C(CCCN1CCC(n2c(=O)[nH]c3ccccc32)CC1)c1ccc(F)cc1"
test_target = "Glucocorticoid receptor (Homo sapiens)"
experimental_endpoint = "Potency"
reported_result = "> 20.6 µM (inactive)"

[[record]]
compound = "COc1ccc(CN2CCNCC2)c(OC)c1OC"
test_target = "Glucocorticoid receptor (Homo sapiens)"
experimental_endpoint = "Potency"
reported_result = "> 20.6 µM (inactive)"


# evaluate next
Query string: Value lookup for Potency; key = CC(C)[N+](C)(CCC(C(N)=O)(c1ccccc1)c1ccccc1)C(C)C
Result string: > 20.6 µM (inactive)

###

- METHOD NOTES: qHTS of pediatric cancer cell lines to identify multiple opportunities for drug repurposing: Confirmatory screen for TC32 cells (AID 1347118);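 note: cells exposed to compound for 48 h before the read; nearly all actives have a fitted effect of over 65% in size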
- ASSAY CONDITIONS: TC32 Ewing sarcoma cells viability qHTS; series mostly up to 45.9 µM
Results filed as inconclusive are left out. Calls of active or inactive are those of the source. The call rests on the fitted dose curve; in most records, active means well fitted cell-killing curve with a large enough effect; inconclusive means small, poorly fitted or top-dose-only effect; inactive means no such curve, though single readings can be large or run the other way.
Valid outcomes are listed here; reply with one: active, inactive

# example entries with known answers
[[record]]
compound = "COC(=O)C1=CCCN(C)C1"
label_class = "active"

[[record]]
compound = "CN1[C@@H]2CC[C@H]1CC(OC(=O)c1cc(Cl)cc(Cl)c1)C2 (stereo not given in full)"
label_class = "inactive"

[[record]]
compound = "COc1ccc(C(=O)N2CCCC2=O)cc1"
label_class = "active"

[[record]]
compound = "CCCCCCCCCCCC[N+](C)(C)CCOc1ccccc1"
label_class = "active"


Query string: Which outcome did this test record for the compound CC1Sc2c(C(=O)O)c(=O)c3cc(F)c(N4CCNCC4)cc3n21 (stereo not given) ?
Result string: active

###

- METHOD NOTES: qHTS of pediatric cancer cell lines to identify multiple opportunities for drug repurposing: Primary screen for Saos-2 cells (AID 1347097); note: nearly all actives have a fitted effect of over 40% in size
- ASSAY CONDITIONS: Saos-2 viability, CellTiter-Glo ATP luminescence, 48 h; series mostly up to 46 µM
Inconclusive results are not listed. Activity calls are given as the source filed them. Calls come from the whole dose curve; as a rule, active = well fitted cell-killing curve with a large enough effect; inconclusive = small, poorly fitted or top-dose-only effect; inactive = no such curve, though single readings can be large or run the other way.
Output constraint: value belongs to active, inactive

Query string: Which result was noted for this compound in the test: O=C1CN2CCOC2(c2ccccc2Cl)c2cc(Cl)ccc2N1 (stereo unspecified)
Result string: inactive

Query string: Again, but for ClCc1cccc(Cl)c1
Result string: inactive

Query string: Same question, CN1CCC(N(Cc2ccccc2)c2ccccc2)CC1 this time
Result string: inactive

Query string: Param item: C=CCOC(Cn1ccnc1)c1ccc(Cl)cc1Cl (stereo unspecified)
Result string: inactive

Query string: Another compound to check: COc1ccc2c(C(=O)c3ccc(Cl)cc3)c(C)n(CC(=O)O)c2c1
Result string: inactive

Query string: Query CN1[C@@H]2CC[C@H]1CC(OC(=O)c1cc(Cl)cc(Cl)c1)C2 (stereo partly specified) next
Result string: active

###

- METHOD NOTES: Primary qHTS for inhibitors of SARS-S pseudo-typed particle cell entry (AID 1479145); note: nearly all actives have a fitted effect of over 45% in size
- ASSAY CONDITIONS: SARS-S pseudotyped particle cell entry, luciferase reporter; series mostly up to 57.1 µM
Records with an inconclusive call do not appear. Activity calls are given as the source filed them. Calls come from the whole dose curve.
Respond using exactly one of the listed classes: active, inactive

Worked examples follow.
[[record]]
compound = "COP(=S)(OC)Oc1ccc(S(N)(=O)=O)cc1"
label_class = "inactive"

[[record]]
compound = "O=C(O)c1cn(-c2ccc(F)cc2)c2cc(N3CCNCC3)c(F)cc2c1=O"
label_class = "inactive"

[[record]]
compound = "CCCCCCCCCCCCCCCCCCNC(=O)OC1CCN(C(=O)OC[C@H](COC(=O)N(Cc2cccc[n+]2CC)C(=O)c2ccccc2OC)OC)CC1"
label_class = "active"

[[record]]
compound = "CC(C)C(=O)Nc1cccc(C2CN3CCSC3=N2)c1 (configuration not stated)"
label_class = "inactive"

[[record]]
compound = "Cc1cccc(N(C)C(=S)Oc2ccc3c(c2)CCC3)c1"
label_class = "inactive"

[[record]]
compound = "CNC1CCCN(c2c(F)cc3c(=O)c(C(=O)O)cn(C4CC4)c3c2OC)C1 (configuration not stated)"
label_class = "inactive"

[[record]]
compound = "CCCCCCCCCCCCCCCC[N+](C)(C)Cc1ccccc1"
label_class = "active"

[[record]]
compound = "CCCCCC1Nc2cc(C(F)(F)F)c(S(N)(=O)=O)cc2S(=O)(=O)N1 (configuration not stated)"
label_class = "inactive"

[[record]]
compound = "C[N+]1(CC2COC(c3ccccc3)(c3ccccc3)O2)CCCCC1 (configuration not stated)"
label_class = "inactive"

[[record]]
compound = "CN(C)CC/C=C1\\c2ccccc2Sc2ccc(Cl)cc21"
label_class = "active"


Now look at this entry.
Query string: Call for entry CCN(CC)C(=O)N1CCN(C)CC1 :
Result string: inactive

Where do the numbers come from? From PubChem BioAssay (NCATS).
